Recorded growth inhibition values for a group of compounds are listed next.
Test system: DIPGX29 (H3.3 K27M diffuse intrinsic pontine glioma line)
Assay: growth inhibition (% activity, log2 RLU normalised to DMSO / staurosporine); higher = more growth inhibition
Settings: 33 µM
Form entry: value (%) — number only.

Look over these answered cases.
compound="CCOC(=O)C1=C(C)NC(C)=C(C(=O)OC)C1c1cccc(Cl)c1Cl (stereo not given)" reported_measurement=2.2
compound=C[C@@H](O)[C@H]1C(=O)N2C(C(=O)OCOC(=O)C(C)(C)C)=C(SC3CN(C4=NCCS4)C3)[C@H](C)[C@H]12 reported_measurement=-0.211
compound=Cc1ccc(N(CC2=NCCN2)c2cccc(O)c2)cc1 reported_measurement=-5.09
compound=C=C1CC[C@H](O)C/C1=C/C=C1\CCC[C@]2(C)[C@@H]([C@H](C)/C=C/[C@H](C)C(C)C)CC[C@@H]12 reported_measurement=3.21
compound=C[C@@](Cc1ccc(O)c(O)c1)(NN)C(=O)O reported_measurement=-0.229
compound=CC(=O)OCC(=O)[C@@]1(O)CC[C@H]2[C@@H]3CCC4=CC(=O)CC[C@]4(C)[C@H]3C(=O)C[C@@]21C reported_measurement=-5.36
compound="CCN(Cc1ccncc1)C(=O)C(CO)c1ccccc1 (stereo not given)" reported_measurement=-2.54
compound=O=S(=O)(O)Oc1ccc(C(c2ccc(OS(=O)(=O)O)cc2)c2ccccn2)cc1 reported_measurement=-1.54
compound=CC(=O)OCC(=O)NCCCOc1cccc(CN2CCCCC2)c1 reported_measurement=-1.28
compound=CC(C)CN(C[C@@H](O)[C@H](Cc1ccccc1)NC(=O)O[C@H]1CCOC1)S(=O)(=O)c1ccc(N)cc1 reported_measurement=-0.715

Prompt: // growth inhibition lookup, key: `NC[C@H](O)c1ccc(O)c(O)c1`
Response: 1.26

Prompt: Which measured growth inhibition value corresponds to `Cc1onc(-c2ccccc2)c1C(=O)N[C@@H]1C(=O)N2[C@@H]1SC(C)(C)[C@@H]2C(=O)O` ?
Response: -1.74

Prompt: # lookup: growth inhibition of `Nc1nc(Cl)nc2c1ncn2[C@@H]1O[C@H](CO)[C@@H](O)[C@@H]1F`
Response: 14.6

Prompt: Data request, read-out growth inhibition, for `Cc1cccc(Nc2ccncc2S(=O)(=O)NC(=O)NC(C)C)c1`
Response: -1.52

Prompt: What value of growth inhibition has been recorded for this entry: `O=C(O)c1ccc(-n2nc(-c3ccccc3O)nc2-c2ccccc2O)cc1`
Response: -3.59

Prompt: Which growth inhibition value belongs to `CCCCc1oc2ccc(NS(C)(=O)=O)cc2c1C(=O)c1ccc(OCCCN(CCCC)CCCC)cc1` ?
Response: 58.9

Prompt: // growth inhibition lookup, key: `COc1ccc([C@@H]2Sc3ccccc3N(CCN(C)C)C(=O)[C@@H]2OC(C)=O)cc1`
Response: -1.14

Origin of measurements: the supplement of paper PMC8253809
